Every entry's value here was drawn from patent US20230303994.

# Tgt: pre-pro-insulin glargine
Metric name: desThr (area %)
Provide only the numeric value, understood in area %.

# example entries with known answers
INSERT INTO results (protein, endpoint_value) VALUES
  ('trypsin variant SEQ ID NO: 110 (protein) IVGGYTCAANSIPYQVSLNSGSHRCGGSLINSQWVVSAAHCYKSRIQVRLGEHNIHVLEGNEQFINAAKIITHPNFNPNTLDNDIMLIKLSSPATLNSHVATVSLPRSCAAAGTECLISGWGNTCSSGSSMPSLLQCLKAPVLSDSSCKSSYPGQITGNMICVGFLEGGADACQGDSGGPVVCNGQLQGIVSSGYGCAQKNKPGVYTKVCNYVNWIQQTIAAN', 0.6),
  ('trypsin variant SEQ ID NO: 86 (protein) IVGGYTCAANSIPYQVSLNSGSHRCGGSLINSQWVVSAAHCYKPRIQVRLGEHNIDVLEGNEQFINAAKIITHPNFNPNTLDNDIMLIKLSSPATLNSAVATVSLPTSCAAAGTECLISGWGNTSSSGSSMPSLLQCLKAPVLSDSSCKSSYPGQITGNMICVGFLEGGKDACQGDSGGPVVCNGQLQGIVSSGYGCAQKNKPGVYTKVCNYVNWIQQTIAAN', 0.1),
  ('porcine trypsin variant S172A (SEQ ID NO: 2) (protein) IVGGYTCAANSIPYQVSLNSGSHFCGGSLINSQWVVSAAHCYKSRIQVRLGEHNIDVLEGNEQFINAAKIITHPNFNGNTLDNDIMLIKLSSPATLNSRVATVSLPRSCAAAGTECLISGWGNTKSSGSSYPSLLQCLKAPVLSDSSCKSSYPGQITGNMICVGFLEGGKDACQGDSGGPVVCNGQLQGIVSWGYGCAQKNKPGVYTKVCNYVNWIQQTIAAN', 5.2),
  ('trypsin variant SEQ ID NO: 89 (protein) IVGGYTCAANSIPYQVSLNSGSHRCGGSLINSQWVVSAAHCYKPRIQVRLGEHNIHVLEGNEQFINAAKIITHPNFNPNTLDNDIMLIKLSSPATLNSHVATVSLPTSCAAAGTECLISGWGNTASSGSSMPSLLQCLKAPVLSDSSCKSSYPGQITGNMICVGFLEGGKDACQGDSGGPVVCNGQLQGIVSSGYGCAQKNKPGVYTKVCNYVNWIQQTIAAN', 1.2),
  ('trypsin variant SEQ ID NO: 80 (protein) IVGGYTCAANSIPYQVSLNSGSHRCGGSLINSQWVVSAAHCYKSRIQVRLGEHNIHVLEGNEQFINAAKIITHPNFNPNTLDNDIMLIKLSSPATLNSHVATVSLPTSCAAAGTECLISGWGNTSSSGSSMPSLLQCLKAPVLSDSSCKSSYPGQITGNMICVGFLEGGKDACQGDSGGPVVCNGQLQGIVSSGYGCAQKNKPGVYTKVCNYVNWIQQTIAAN', 0.5);

## Input Which desThr is listed for trypsin variant SEQ ID NO: 41 (protein) IVGGYTCAANSIPYQVSLNSGSHRCGGSLINSQWVVSAAHCYKSRIQVRLGEHNIDVLEGNEQFINAAKIITHPNFNGNTLDNDIMLIKLSSPATLNSRVATVSLPRSCAAAGTECLISGWGNTKSSGSSHPSLLQCLKAPVLSDSSCKSSYPGQITGNMICVGFLEGGKDACQGDSGGPVVCNGQLQGIVSSGYGCAQKNKPGVYTKVCNYVNWIQQTIAAN ?
## Output 1.9

## Input Item under review: trypsin variant SEQ ID NO: 99 (protein) IVGGYTCAANSIPYQVSLNSGSHRCGGSLINSQWVVSAAHCYKSRIQVRLGEHNIHVLEGNEQFINAAKIITHPNFNPNTLDNDIMLIKLSSPATLNSNVATVSLPTSCAAAGTECLISGWGNTSSSGSSYPSLLQCLKAPVLSDSSCKSSYPGQITGNMICVGFLEGGADACQGDSGGPVVCNGQLQGIVSSGYGCAQKNKPGVYTKVCNYVNWIQQTIAAN . Reported desThr?
## Output 1

## Input Could you share which desThr value was measured for trypsin variant SEQ ID NO: 10 (protein) IVGGYTCAANSIPYQVSLNSGSHRCGGSLINSQWVVSAAHCYKSRIQVRLGEHNIDVLEGNEQFINAAKIITHPNFNGNTLDNDIMLIKLSSPATLNSTVATVSLPRSCAAAGTECLISGWGNTKSSGSSYPSLLQCLKAPVLSDSSCKSSYPGQITGNMICVGFLEGGKDACQGDSGGPVVCNGQLQGIVSSGYGCAQKNKPGVYTKVCNYVNWIQQTIAAN ?
## Output 2.6

## Input Value lookup for desThr; key = trypsin variant SEQ ID NO: 56 (protein) IVGGYTCAANSIPYQVSLNSGSHRCGGSLINSQWVVSAAHCYKSRIQVRLGEHNINVLEGNEQFINAAKIITHPNFNGNTLDNDIMLIKLSSPATLNSRVATVSLPRSCAAAGTECLISGWGNTKSSGSSYPSLLQCLKAPVLSDSSCKSSYPGQITGNMICVGFLEGGKDACQGDSGGPVVCNGQLQGIVSSGYGCAQKNKPGVYTKVCNYVNWIQQTIAAN
## Output 2

## Input Please give the measured desThr for this protein: trypsin variant SEQ ID NO: 103 (protein) IVGGYTCAANSIPYQVSLNSGSHRCGGSLINSQWVVSAAHCYKPRIQVRLGEHNIHVLEGNEQFINAAKIITHPNFNPNTLDNDIMLIKLSSPATLNSHVATVSLPTSCAAAGTECLISGWGNTSSSGSSMPSLLQCLKAPVLSDSSCKSSYPGQITGNMICVGFLEGGADSCQGDSGGPVVCNGQLQGIVSSGYGCAQKNKPGVYTKVCNYVNWIQQTIAAN
## Output 1.4
